assay: Probe fluorescence ratio response to arachidonic acid relative to ADIFAB2; assay type: binding; conditions: arachidonic acid; response relative to ADIFAB2
measurement_kind: DR/DR AA
Could you respond with only the numeric value?

# molecule, DR/DR AA
records = [
    ("38Y, 72A (protein, listed as Rattus norvegicus, PEPTIDE (1)...(131) wild-type rat intestinal fatty acid binding protein) AFDGTWKVDRNENYEKFMEKMGINVVKRKLGAHDNLKYTITQEGNKFTVKESSNFRNIDVVFELGVDFAYSAADGTELTGTWTMEGNKLVGKFKRVDNGKELIAVREISGNELIQTYTYEGVEAKRIFKKE", 2.081),
    ("11V, 72A (protein, listed as Rattus norvegicus, PEPTIDE (1)...(131) wild-type rat intestinal fatty acid binding protein) AFDGTWKVDRVENYEKFMEKMGINVVKRKLGAHDNLKLTITQEGNKFTVKESSNFRNIDVVFELGVDFAYSAADGTELTGTWTMEGNKLVGKFKRVDNGKELIAVREISGNELIQTYTYEGVEAKRIFKKE", 0.932),
    ("18V 31Y 55I 73G 72A (protein, listed as Rattus norvegicus, PEPTIDE (1)...(131) wild-type rat intestinal fatty acid binding protein) AFDGTWKVDRNENYEKFVEKMGINVVKRKLYAHDNLKLTITQEGNKFTVKESSNIRNIDVVFELGVDFAYSAGDGTELTGTWTMEGNKLVGKFKRVDNGKELIAVREISGNELIQTYTYEGVEAKRIFKKE", 1.007),
    ("14L 18S 31L 73V 117A 72A (protein, listed as Rattus norvegicus, PEPTIDE (1)...(131) wild-type rat intestinal fatty acid binding protein) AFDGTWKVDRNENLEKFSEKMGINVVKRKLLAHDNLKLTITQEGNKFTVKESSNFRNIDVVFELGVDFAYSAVDGTELTGTWTMEGNKLVGKFKRVDNGKELIAVREISGNELIQTATYEGVEAKRIFKKE", 0.951),
    ("31T2, 72A (protein, listed as Rattus norvegicus, PEPTIDE (1)...(131) wild-type rat intestinal fatty acid binding protein) AFDGTWKVDRNENYEKFMEKMGINVVKRKLTAHDNLKLTITQEGNKFTVKESSNFRNIDVVFELGVDFAYSAADGTELTGTWTMEGNKLVGKFKRVDNGKELIAVREISGNELIQTYTYEGVEAKRIFKKE", 0.65),
    ("62P, 72A (protein, listed as Rattus norvegicus, PEPTIDE (1)...(131) wild-type rat intestinal fatty acid binding protein) AFDGTWKVDRNENYEKFMEKMGINVVKRKLGAHDNLKLTITQEGNKFTVKESSNFRNIDVVPELGVDFAYSAADGTELTGTWTMEGNKLVGKFKRVDNGKELIAVREISGNELIQTYTYEGVEAKRIFKKE", 1.548),
    ("38W 106H 117A 72A (protein, listed as Rattus norvegicus, PEPTIDE (1)...(131) wild-type rat intestinal fatty acid binding protein) AFDGTWKVDRNENYEKFMEKMGINVVKRKLGAHDNLKWTITQEGNKFTVKESSNFRNIDVVFELGVDFAYSAADGTELTGTWTMEGNKLVGKFKRVDNGKELIAVHEISGNELIQTATYEGVEAKRIFKKE", 1.326),
    ("55Q, 72A (protein, listed as Rattus norvegicus, PEPTIDE (1)...(131) wild-type rat intestinal fatty acid binding protein) AFDGTWKVDRNENYEKFMEKMGINVVKRKLGAHDNLKLTITQEGNKFTVKESSNQRNIDVVFELGVDFAYSAADGTELTGTWTMEGNKLVGKFKRVDNGKELIAVREISGNELIQTYTYEGVEAKRIFKKE", 0.600),
    ("126K, 72A (protein, listed as Rattus norvegicus, PEPTIDE (1)...(131) wild-type rat intestinal fatty acid binding protein) AFDGTWKVDRNENYEKFMEKMGINVVKRKLGAHDNLKLTITQEGNKFTVKESSNFRNIDVVFELGVDFAYSAADGTELTGTWTMEGNKLVGKFKRVDNGKELIAVREISGNELIQTYTYEGVEAKKIFKKE", 0.625),
    ("49I, 72A (protein, listed as Rattus norvegicus, PEPTIDE (1)...(131) wild-type rat intestinal fatty acid binding protein) AFDGTWKVDRNENYEKFMEKMGINVVKRKLGAHDNLKLTITQEGNKFTIKESSNFRNIDVVFELGVDFAYSAADGTELTGTWTMEGNKLVGKFKRVDNGKELIAVREISGNELIQTYTYEGVEAKRIFKKE", 1.796),
]

Okay, now this molecule:
Qu. Form field: reported DR/DR AA of 73T, 72A (protein, listed as Rattus norvegicus, PEPTIDE (1)...(131) wild-type rat intestinal fatty acid binding protein) AFDGTWKVDRNENYEKFMEKMGINVVKRKLGAHDNLKLTITQEGNKFTVKESSNFRNIDVVFELGVDFAYSATDGTELTGTWTMEGNKLVGKFKRVDNGKELIAVREISGNELIQTYTYEGVEAKRIFKKE
Ans. 0.872
